Assign glycan array binding signal (z-score) to each entry below.
# MEASUREMENT TARGET: Gal(b1-4)GlcNAc(b1-3)Gal(b1-4)GlcNAc(b1-3)Gal(b1-4)GlcNAc(b1-3)Gal(b1-4)GlcNAc(b1-3)Gal(b1-4)GlcNAc(b1-2)Man(a1-3)[Gal(b1-4)GlcNAc(b1-3)Gal(b1-4)GlcNAc(b1-3)Gal(b1-4)GlcNAc(b1-3)Gal(b1-4)GlcNAc(b1-3)Gal(b1-4)GlcNAc(b1-2)Man(a1-6)]Man(b1-4)GlcNAc(b1-4)GlcNAc
# ASSAY INFO: glycan array binding signal (z-score within array); higher = stronger binding
# MEASUREMENT SETUP: glycan notation: IUPAC condensed, linker removed
This is one part of a sample in which the strongest signals are shown more often than they occur.
Give bare numbers.

Solved entries (count: 6):
>  <BINDER>
Na-CTL-1 (Necator americanus) (protein) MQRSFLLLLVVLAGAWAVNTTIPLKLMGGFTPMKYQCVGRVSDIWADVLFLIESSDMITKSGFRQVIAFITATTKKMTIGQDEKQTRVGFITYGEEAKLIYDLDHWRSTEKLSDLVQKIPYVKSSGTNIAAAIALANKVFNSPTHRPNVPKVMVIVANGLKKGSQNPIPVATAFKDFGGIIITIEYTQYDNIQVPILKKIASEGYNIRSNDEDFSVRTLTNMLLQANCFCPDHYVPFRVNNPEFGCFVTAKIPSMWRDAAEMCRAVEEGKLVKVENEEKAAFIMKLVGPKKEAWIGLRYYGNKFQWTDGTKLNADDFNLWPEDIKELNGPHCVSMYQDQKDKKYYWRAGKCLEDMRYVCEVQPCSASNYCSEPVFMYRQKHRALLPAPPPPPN

>  <RECORDED VALUE>
0.78

$$$$
>  <BINDER>
Als3-2 (Candida albicans) (protein) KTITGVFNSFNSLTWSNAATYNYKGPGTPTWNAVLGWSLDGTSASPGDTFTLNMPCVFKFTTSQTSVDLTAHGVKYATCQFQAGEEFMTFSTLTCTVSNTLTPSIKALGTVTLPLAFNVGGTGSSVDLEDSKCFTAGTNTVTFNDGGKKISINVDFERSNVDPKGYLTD

>  <RECORDED VALUE>
5.24

$$$$
>  <BINDER>
Epa23 (Candida glabrata) (protein) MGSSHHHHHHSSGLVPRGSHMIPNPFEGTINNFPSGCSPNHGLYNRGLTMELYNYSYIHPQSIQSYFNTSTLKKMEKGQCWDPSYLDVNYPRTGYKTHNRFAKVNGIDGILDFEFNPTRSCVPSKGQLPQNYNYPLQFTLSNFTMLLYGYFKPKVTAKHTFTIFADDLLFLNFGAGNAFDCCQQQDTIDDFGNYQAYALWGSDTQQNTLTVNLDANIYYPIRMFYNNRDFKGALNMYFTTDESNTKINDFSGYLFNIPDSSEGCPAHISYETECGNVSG

>  <RECORDED VALUE>
3.01

$$$$
>  <BINDER>
FimA-N1 (Actinomyces oris) (protein) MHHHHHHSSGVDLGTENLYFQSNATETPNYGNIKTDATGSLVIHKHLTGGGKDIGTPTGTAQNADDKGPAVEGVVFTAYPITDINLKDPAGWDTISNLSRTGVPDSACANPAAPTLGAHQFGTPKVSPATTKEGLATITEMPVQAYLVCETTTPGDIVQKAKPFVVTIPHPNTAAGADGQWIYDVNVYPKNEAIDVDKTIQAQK

>  <RECORDED VALUE>
3.32

$$$$
>  <BINDER>
Epa1to9 (Candida glabrata) (protein) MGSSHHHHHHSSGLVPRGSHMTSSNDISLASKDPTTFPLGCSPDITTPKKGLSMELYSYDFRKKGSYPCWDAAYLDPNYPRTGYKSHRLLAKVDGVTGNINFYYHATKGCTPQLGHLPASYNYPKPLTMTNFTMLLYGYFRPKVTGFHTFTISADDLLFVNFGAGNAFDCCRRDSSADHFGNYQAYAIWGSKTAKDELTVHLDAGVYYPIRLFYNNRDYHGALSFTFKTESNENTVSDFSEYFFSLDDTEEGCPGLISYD

>  <RECORDED VALUE>
0.122

$$$$
>  <BINDER>
Epf (Streptococcus pyogenes) (protein) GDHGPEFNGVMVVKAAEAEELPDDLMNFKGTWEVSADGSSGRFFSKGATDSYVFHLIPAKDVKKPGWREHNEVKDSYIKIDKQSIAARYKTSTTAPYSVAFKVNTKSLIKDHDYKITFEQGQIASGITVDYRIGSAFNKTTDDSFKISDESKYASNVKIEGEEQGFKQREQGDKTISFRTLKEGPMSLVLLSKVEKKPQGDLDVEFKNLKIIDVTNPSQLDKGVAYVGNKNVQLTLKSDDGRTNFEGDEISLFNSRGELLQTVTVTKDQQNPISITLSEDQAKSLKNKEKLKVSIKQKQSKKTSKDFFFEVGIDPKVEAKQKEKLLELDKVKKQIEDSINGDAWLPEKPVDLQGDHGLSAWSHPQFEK

>  <RECORDED VALUE>
2.53

$$$$

Parameters: items (list). Returns: glycan array binding signal (z-score) for each item.
1. SfaEH (Escherichia coli), Q1RDG5 (protein) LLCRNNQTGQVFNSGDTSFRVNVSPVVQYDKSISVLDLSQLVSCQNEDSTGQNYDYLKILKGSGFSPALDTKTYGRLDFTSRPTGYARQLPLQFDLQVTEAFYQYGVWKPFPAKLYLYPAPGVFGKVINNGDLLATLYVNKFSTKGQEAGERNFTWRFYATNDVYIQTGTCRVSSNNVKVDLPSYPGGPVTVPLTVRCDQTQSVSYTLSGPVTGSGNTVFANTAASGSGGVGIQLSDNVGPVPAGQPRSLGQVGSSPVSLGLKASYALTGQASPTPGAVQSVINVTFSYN
2. RbmA (Vibrio cholerae), A0A2H4NFB8 (protein) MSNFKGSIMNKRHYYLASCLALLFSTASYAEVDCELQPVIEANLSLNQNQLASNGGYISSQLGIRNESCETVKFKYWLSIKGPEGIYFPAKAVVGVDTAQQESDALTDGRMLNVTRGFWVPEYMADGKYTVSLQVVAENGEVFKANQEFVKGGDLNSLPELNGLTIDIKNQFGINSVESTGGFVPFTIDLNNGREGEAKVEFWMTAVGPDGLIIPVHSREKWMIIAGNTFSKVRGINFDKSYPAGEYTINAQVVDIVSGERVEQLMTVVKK

[2.05, 5.93]
